test-summary: self-splicing fitness, log relative to wild type (ln ratio); higher = more splicing; Tetrahymena group I intron in knt gene, E. coli kanamycin selection, DiMSum; sequences stand for … in CUCUCU…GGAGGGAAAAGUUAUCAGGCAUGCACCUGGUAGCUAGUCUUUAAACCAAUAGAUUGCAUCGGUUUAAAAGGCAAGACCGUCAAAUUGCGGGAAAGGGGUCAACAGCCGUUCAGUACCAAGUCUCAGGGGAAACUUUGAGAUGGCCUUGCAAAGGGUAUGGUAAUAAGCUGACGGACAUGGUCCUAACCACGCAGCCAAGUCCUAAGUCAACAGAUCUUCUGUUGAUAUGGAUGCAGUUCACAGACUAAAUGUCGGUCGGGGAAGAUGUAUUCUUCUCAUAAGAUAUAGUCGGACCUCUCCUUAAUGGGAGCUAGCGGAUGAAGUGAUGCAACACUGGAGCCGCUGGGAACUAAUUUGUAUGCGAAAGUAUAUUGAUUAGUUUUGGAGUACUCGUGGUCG;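 further: selection with 25 µg/mL kanamycin versus none on LB agar overnight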
conditions-used: 30 °C
Classify by measured self-splicing fitness (ln): 1.0 if it is equal to or exceeds -3, 0.0 if it is smaller.

Request: Please check the record CAAUAGCAAUAUUACGUAUC and state if its self-splicing fitness (ln) is at or above -3.
Response: 0.0

Request: Is the recorded value of self-splicing fitness (ln) equal to or greater than -3 for this sequence? UAAUAGCAAUAUUACGACGC
Response: 1.0

Request: Determine whether this sequence has self-splicing fitness (ln) no lower than -3: GUAAAGCAAUAUUACGUCAA
Response: 1.0

Request: Has CUGUAGCAAUAUUACGCUUA a recorded self-splicing fitness (ln) greater than or equal to -3?
Response: 0.0

Request: State whether the measured self-splicing fitness (ln) reaches -3, counting equality as reaching it, for UAAGAGCAAUAUUACGUUAU
Response: 0.0

Request: Quick check: does AGGUAGCAAUAUUACGGGGA have self-splicing fitness (ln) greater than or equal to -3?
Response: 0.0

Request: self-splicing fitness (ln) >= -3 for AGUGAGCAAUAUUACGGGGA ?
Response: 0.0

* * *

Kindly state self-splicing fitness (ln) for each of the entries shown.
test-summary: self-splicing fitness, log relative to wild type (ln ratio); higher = more splicing; Tetrahymena group I intron in knt gene, E. coli kanamycin selection, DiMSum; sequences stand for … in CUCUCU…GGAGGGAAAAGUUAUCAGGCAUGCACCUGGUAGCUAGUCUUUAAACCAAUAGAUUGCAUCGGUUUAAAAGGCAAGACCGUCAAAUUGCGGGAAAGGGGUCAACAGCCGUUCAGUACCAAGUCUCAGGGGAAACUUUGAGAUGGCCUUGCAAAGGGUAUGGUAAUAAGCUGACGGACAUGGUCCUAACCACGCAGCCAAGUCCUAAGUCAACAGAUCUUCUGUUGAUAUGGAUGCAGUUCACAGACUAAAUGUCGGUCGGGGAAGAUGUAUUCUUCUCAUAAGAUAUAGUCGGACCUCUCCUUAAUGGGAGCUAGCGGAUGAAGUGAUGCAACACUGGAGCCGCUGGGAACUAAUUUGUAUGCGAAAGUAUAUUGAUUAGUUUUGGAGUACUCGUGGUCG
conditions-used: 37 °C
Write the number on its own, no unit after it.

Request: Reported self-splicing fitness (ln), sequence GGACAGCAAUAUUACGAUUC : ____
Response: 0.353

Request: Could you tell me which self-splicing fitness (ln) is on file for GAUGAGCAAUAUUACGGCUG ?
Response: -1.36

Request: # lookup: self-splicing fitness (ln) of CUCAAGCAAUAUUACGAACU
Response: -1.27

Request: Request the reported self-splicing fitness (ln) associated with AAAAAGCAAUAUUACGCACA
Response: -0.183

Request: Requested read-out: self-splicing fitness (ln). Entry: UGGGAGCAAUAUUACGCCGG
Response: -2.19

Request: // self-splicing fitness (ln) lookup, key: UAGAAGCAAUAUUACGCGUU
Response: -1.41

Request: So what does the record say about self-splicing fitness (ln) for UAGUAGCAAUAUUACGCCUA ?
Response: -0.575

Request: Would you mind telling me what self-splicing fitness (ln) value was observed for CAAAAGCAAUAUUACGGAGG ?
Response: -0.844

Request: Entry CGGCAGCAAUAUUACGCGUC : reported self-splicing fitness (ln) = ?
Response: -2.4

Request: Requested read-out: self-splicing fitness (ln). Entry: GCGGAGCAAUAUUACGACGC
Response: -2.45

Request: GET /values?readout=self-splicing fitness (ln)&item= AAUUAGCAAUAUUACGGAUU
Response: -1.3

Request: For the sequence AUUAAGCAAUAUUACGUUCA , what self-splicing fitness (ln) is on record?
Response: -0.399

Request: Recorded self-splicing fitness (ln) of AUUAAGCAAUAUUACGUUCG , please.
Response: -0.85

Request: Param item = AAAGAGCAAUAUUACGGUUU ; retrieve measured self-splicing fitness (ln).
Response: -1.06

Request: Value lookup for self-splicing fitness (ln); key = UUCUAGCAAUAUUACGACGU
Response: -1.12

Request: Query (sequence): UACAAGCAAUAUUACGCUGU ; field requested: self-splicing fitness (ln)
Response: -1.65

* * *

Can you tell me self-splicing fitness (ln) for the items I'm about to list?
test-summary: self-splicing fitness, log relative to wild type (ln ratio); higher = more splicing; Tetrahymena group I intron in knt gene, E. coli kanamycin selection, DiMSum; sequences stand for … in CUCUCU…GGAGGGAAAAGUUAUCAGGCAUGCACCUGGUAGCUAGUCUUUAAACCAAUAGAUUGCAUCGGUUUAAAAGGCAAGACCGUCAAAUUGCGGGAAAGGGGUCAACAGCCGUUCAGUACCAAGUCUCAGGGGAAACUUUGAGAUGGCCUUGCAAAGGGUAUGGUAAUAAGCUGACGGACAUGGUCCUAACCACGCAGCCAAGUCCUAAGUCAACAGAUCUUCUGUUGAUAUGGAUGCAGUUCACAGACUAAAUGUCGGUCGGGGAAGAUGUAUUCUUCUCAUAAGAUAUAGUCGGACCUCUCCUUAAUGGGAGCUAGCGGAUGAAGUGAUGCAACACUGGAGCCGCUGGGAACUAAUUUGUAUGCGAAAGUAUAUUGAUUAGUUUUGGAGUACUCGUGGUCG
conditions-used: 30 °C
Respond using a number only.

Request: Quick one: self-splicing fitness (ln) of CGGCAGCAAUAUUACGAUCC ?
Response: -2

Request: Consider the sequence GCUGAGCAAUAUUACGGAAC and give its measured self-splicing fitness (ln).
Response: -2.25

Request: self-splicing fitness (ln) lookup needed for GGCAAGCAAUAUUACGUGAU , thanks.
Response: -0.97

Request: Give its self-splicing fitness (ln) value. Item: AGGUAGCAAUAUUACGCGGG
Response: -3.61

Request: May I ask what self-splicing fitness (ln) has been recorded for UCACAGCAAUAUUACGUGGU ?
Response: -4.05

Request: If you can, please state the reported self-splicing fitness (ln) value of UUUAAGCAAUAUUACGACAU .
Response: -1.45

Request: Any idea what its self-splicing fitness (ln) is? The sequence is AAUUAGCAAUAUUACGGAAC
Response: -2.77

Request: Value lookup for self-splicing fitness (ln); key = CUGCAGCAAUAUUACGUUUG
Response: -2.61

Request: Quick check: self-splicing fitness (ln) of GUACAGCAAUAUUACGGGCC ?
Response: -3.94

Request: Given the sequence AACCAGCAAUAUUACGCUUU , what is its reported self-splicing fitness (ln)?
Response: -1.42

Request: # lookup: self-splicing fitness (ln) of UGUCAGCAAUAUUACGCACA
Response: -0.467

Request: What measured self-splicing fitness (ln) goes with AAAUAGCAAUAUUACGCUCG ?
Response: -0.663

Request: # input sequence: GUUUAGCAAUAUUACGCAUA ; wanted: its self-splicing fitness (ln)
Response: -1.69

Request: Consider the sequence UGAGAGCAAUAUUACGACUA and give its measured self-splicing fitness (ln).
Response: -1.47

Request: Requested field: self-splicing fitness (ln). Item: GUUAAGCAAUAUUACGGCCU
Response: -0.808

Request: Any idea what self-splicing fitness (ln) was measured for CAGUAGCAAUAUUACGAAAG ?
Response: -0.623

Request: Would you kindly share the measured self-splicing fitness (ln) for AUCAAGCAAUAUUACGGCGG ?
Response: -1.04

Request: Given the entry GUGCAGCAAUAUUACGCCUC , report its measured self-splicing fitness (ln).
Response: -0.807

Request: I'd like to know its self-splicing fitness (ln). The sequence in question is CGGCAGCAAUAUUACGCAUC
Response: -3.25

Request: GET /values?readout=self-splicing fitness (ln)&item= CAGCAGCAAUAUUACGAGCG
Response: -0.131

Request: Fill in: self-splicing fitness (ln) of UCAGAGCAAUAUUACGCGCG is ___
Response: -2.44

Request: Which self-splicing fitness (ln) value belongs to GGCAAGCAAUAUUACGCUAA ?
Response: -0.671

Request: Suppose we examine the sequence CAGUAGCAAUAUUACGUAAU ; what self-splicing fitness (ln) value has been reported?
Response: -4

Request: Record request: self-splicing fitness (ln) value, item GUUUAGCAAUAUUACGUCGC
Response: -1.67

Request: Which self-splicing fitness (ln) value belongs to UUGAAGCAAUAUUACGUGUA ?
Response: -1.7

Request: Look up self-splicing fitness (ln): UGAGAGCAAUAUUACGGUUC
Response: -3.4

Request: Reported self-splicing fitness (ln), sequence AUUCAGCAAUAUUACGCCUG : ____
Response: -1.95

Request: Return reported self-splicing fitness (ln); argument: AAAAAGCAAUAUUACGCAGA
Response: -2.35

Request: Could you tell me which self-splicing fitness (ln) is on file for AGGAAGCAAUAUUACGUGUA ?
Response: -2.06

Request: // returns reported self-splicing fitness (ln) for input GCAUAGCAAUAUUACGAUGU
Response: -2.82

Request: What does the data say about its self-splicing fitness (ln)? Entry: GAUGAGCAAUAUUACGGCAU
Response: -1.71

Request: Given the entry AAUAAGCAAUAUUACGGCUA , report its measured self-splicing fitness (ln).
Response: 0.107

Request: Any idea what its self-splicing fitness (ln) is? The sequence is GCCUAGCAAUAUUACGAGAU
Response: -1.88

Request: Suppose we examine the sequence UCCGAGCAAUAUUACGAGGA ; what self-splicing fitness (ln) value has been reported?
Response: -3.04
